// provenance: paper PMC7572793

molecular target: T1, peptide 29 (Plasmodium falciparum 3D7); assay: ELISA
T1 chain: NANPNANPNANPNAN
MEASURED ATTRIBUTE: binding result

BINDER	OBSERVED MEASUREMENT
317 (antibody, V domains shown) VH: QMQLVESGGGVVQPGRSLRLSCTASGFTFSTYAMHWVRQSPGQGLQWVAVISYHSTNKYYEDSVRGRFTISRDNSKNTLYLQMNSLRAEDTAVYYCARDGYSSSFFDFWGQGTLVTVSS VL: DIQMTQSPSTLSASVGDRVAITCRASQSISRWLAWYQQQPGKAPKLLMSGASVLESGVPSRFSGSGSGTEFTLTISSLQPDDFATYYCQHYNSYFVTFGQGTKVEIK	binds
